Provenance of the data: PubChem BioAssay (NCATS)

Test system: CP286
assay_summary: qHTS profiling for inhibitors of Plasmodium falciparum proliferation (AID 504749); also: nearly all actives have a fitted effect of over 60% in size; also: potency is read from the fitted curve at half-maximal effect
condition_label: P. falciparum in erythrocytes, SYBR Green DNA, 72 h; series mostly up to 28.7 µM
Inconclusive results are not listed. The source made the active and inactive calls. Calls follow the shape of the dose curve; as a rule, active = well fitted inhibition curve with a large enough effect; inconclusive = small, poorly fitted or top-dose-only effect; inactive = flat fitted curve, though single readings scatter.
quantity_kind: Potency

compound	system_tested	quantity_kind	result
Cc1c(C)c2c(c(C)c1O)CCC(C)(CCCC(C)CCCC(C)CCCC(C)C)O2 (configuration not stated)	CP286	Potency	inactive
CC1OC(OCC2OC(Oc3c(-c4ccc(OCCO)c(OCCO)c4)oc4cc(OCCO)cc(O)c4c3=O)C(O)C(O)C2O)[C@@H](O)C(O)C1O (some centres not stated)	CP286	Potency	inactive
CCCCCCCCCCCC(=O)OCC(O)C1OCC(O)C1O (configuration not stated)	CP286	Potency	inactive
Nc1nc(Cl)nc2c1ncn2[C@@H]1O[C@H](CO)[C@H](O)C1F (some centres not stated)	CP286	Potency	inactive
CCN(CC)CC(=O)Nc1c(C)cc(C)cc1C	CP286	Potency	inactive
CC1CCC(O)C/C1=C\C=C1/CCCC2(C)C1CCC2C(C)/C=C/C(C)C(C)C (configuration not stated)	CP286	Potency	inactive
Nc1nc(/C(=C/CC(=O)O)C(=O)NC2C(=O)N3C(C(=O)O)=CCSC23)cs1 (configuration not stated)	CP286	Potency	inactive
CN(C)CC[C@@](O)(c1ccccc1)c1ccccc1Cl	CP286	Potency	7.94 µM (active)
CCCC[C@H](O)c1ccccc1	CP286	Potency	inactive
OCC1O[C@H](O[C@H]2C(O)C(O)C(O)O[C@@H]2CO)C(O)C(O)C1O (some centres not stated)	CP286	Potency	inactive
CC1=C[C@@H](O)CC(C)(C)[C@@H]1/C=C/C(C)=C/C=C/C(C)=C/C=C/C=C(C)/C=C/C=C(C)/C=C/C1=C(C)C[C@H](O)CC1(C)C	CP286	Potency	inactive
C=C[C@H]1CN2CCC1C[C@H]2[C@H](O)c1ccnc2ccc(OC)cc12 (some centres not stated)	CP286	Potency	1 µM (active)
C[C@]12CC[C@@H]3c4ccc(O)cc4CC[C@H]3[C@@H]1C[C@H](O)C2O (some centres not stated)	CP286	Potency	inactive
CC(C)C[C@@H](NC(=O)[C@@H](Cc1ccccc1)NC(=O)c1cnccn1)B(O)O	CP286	Potency	0.0891 µM (active)
CC(CN1CC(=O)NC(=O)C1)N1CC(=O)NC(=O)C1 (configuration not stated)	CP286	Potency	inactive
COc1ccc2cc1Oc1cc3c(cc1OC)CC[N+](C)(C)C3Cc1ccc(cc1)Oc1c(OC)c(OC)cc3c1C(C2)[N+](C)(C)CC3 (configuration not stated)	CP286	Potency	inactive
CC1=C(/C=C/C(C)=C\C=C\C(C)=C\C=C\C=C(C)\C=C\C=C(C)\C=C\C2=C(C)C[C@@H](O)CC2(C)C)C(C)(C)C[C@H](O)C1	CP286	Potency	11.2 µM (active)
CCCCCCCCCCCCCCCC(=O)OC[C@H](O)[C@H]1OC[C@@H](O)[C@@H]1O	CP286	Potency	inactive
C=C1CCC(O)C/C1=C/C=C1\CCC[C@]2(C)[C@@H]([C@H](C)/C=C/[C@H](C)C(C)C)CC[C@@H]12 (some centres not stated)	CP286	Potency	inactive
COC1CC2CCC(C)[C@](O)(O2)C(=O)C(=O)N2CCCCC2C(=O)OC(C(C)CC2CCC(O)C(OC)C2)CC(=O)C(C)/C=C(/C)C(O)C(OC)C(=O)C(C)CC(C)C=CC=C/C=C\1C (some centres not stated)	CP286	Potency	4.47 µM (active)
Cc1ccc(S(=O)(=O)NC(=O)NC(C)Cc2ccccc2)cc1 (configuration not stated)	CP286	Potency	inactive
O=C(OC[C@@H]1O[C@@](O)(COC(=O)c2cccnc2)[C@H](OC(=O)c2cccnc2)[C@H]1OC(=O)c1cccnc1)c1cccnc1	CP286	Potency	inactive
Cc1ccccc1N1C(=O)c2cc(N)ccc2N/C1=C\F	CP286	Potency	inactive
O=C(O)c1ccccc1-c1c2ccc(=O)cc-2oc2cc(O)ccc12	CP286	Potency	inactive
Cn1cc(C(=O)[C@@H]2CCc3[nH]cnc3C2)c2ccccc21	CP286	Potency	inactive
COc1cccc(OC)c1C(=O)NC1C(=O)N2C1SC(C)(C)C2C(=O)O (configuration not stated)	CP286	Potency	inactive
CO/N=C(/C(=O)N[C@@H]1C(=O)N2C(C(=O)O)=C(CSC(=O)c3ccco3)CSC12)c1csc(N)n1 (some centres not stated)	CP286	Potency	inactive
C[S+](C)CC[C@H](N)C(=O)O	CP286	Potency	inactive
COc1ccc(S(=O)(=O)N2c3ccc(Cl)cc3[C@](O)(c3ccccc3Cl)[C@@H]2C(=O)N2CCC[C@H]2C(N)=O)cc1OC	CP286	Potency	inactive
CC1CCC(C(C)C)C(O)C1 (configuration not stated)	CP286	Potency	inactive
CC1OC(OC2C(O)CC(OC3C(O)CC(OC4CCC5(C)C(CCC6C5CCC5(C)C(C7=CC(=O)OC7)CCC65O)C4)OC3C)OC2C)CC(O)C1O (configuration not stated)	CP286	Potency	inactive
CNC1=CN(O)C(c2ccccc2)=c2cc(Cl)ccc2=N1	CP286	Potency	4.47 µM (active)
NC(=O)NC(CCC(=O)O)C(=O)O (configuration not stated)	CP286	Potency	inactive
Cc1cn([C@H]2CC(F)[C@@H](CO)O2)c(=O)[nH]c1=O (some centres not stated)	CP286	Potency	inactive
C[C@@H]1CCN(C(=O)[C@H](CCCNC(=N)N)NS(=O)(=O)c2cccc3c2NC[C@H](C)C3)[C@@H](C(=O)O)C1	CP286	Potency	inactive
C[C@]12CCC(=O)C=C1[C@@H]1C[C@H]1[C@H]1[C@@H]3[C@@H]4C[C@H]4[C@@]4(CCC(=O)O4)[C@@]3(C)CC[C@@H]12	CP286	Potency	inactive
Cc1cncc(C(=O)O)[n+]1[O-]	CP286	Potency	inactive
